- Tested on: A-549
- test details: cells
- Set-up: species or system transformed mammalian cell lines; MTT assay (formazan absorbance at 595 nm), anti-proliferative activity on transformed cell lines
- run parameters: Homo sapiens, A549; read-out: Gephyronic acid IC50
value type: pIC50
In textbook form, pIC50 equals minus log to base ten of the concentration in mol/L.

Exercise: Dear colleague, please send me the reported pIC50 for CO[C@@H]([C@H](C)[C@@H](O)CC(=O)O)C(C)(C)C(=O)[C@@H](C)C[C@H](C)[C@H](O)[C@@]1(C)O[C@@H]1[C@@H](C)C=C(C)C when you can.
Solution: 8.10

---

- System: MCF-7
- test details: cells
- Design: species or system transformed mammalian cell lines; MTT assay (formazan absorbance at 595 nm), anti-proliferative activity on transformed cell lines
- run parameters: Homo sapiens, MCF7; read-out: Gephyronic acid IC50
value type: IC50 (nM)
# number only, unit nM dropped from output

Exercise: Dear colleague, please send me the reported IC50 for CO[C@@H]([C@H](C)[C@@H](O)CC(=O)O)C(C)(C)C(=O)[C@@H](C)C[C@H](C)[C@H](O)[C@@]1(C)O[C@@H]1[C@@H](C)C=C(C)C when you can.
Solution: 14

Origin of values: paper PMC6067752
